Tested on: ArSSR3
Sequence (as listed by the source): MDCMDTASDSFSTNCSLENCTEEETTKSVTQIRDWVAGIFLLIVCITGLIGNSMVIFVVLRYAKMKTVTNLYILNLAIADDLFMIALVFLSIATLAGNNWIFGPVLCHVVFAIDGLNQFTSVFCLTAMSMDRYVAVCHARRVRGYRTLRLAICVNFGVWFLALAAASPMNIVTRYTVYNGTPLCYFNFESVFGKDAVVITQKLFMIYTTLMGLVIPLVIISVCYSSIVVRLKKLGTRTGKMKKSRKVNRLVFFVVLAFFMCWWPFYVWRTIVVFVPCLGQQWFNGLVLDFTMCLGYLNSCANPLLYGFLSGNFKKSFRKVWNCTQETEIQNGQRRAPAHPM
Assay: GFP-aequorin luminescence receptor activation assay, CHO-K1 cells, ArSSR3 + Gα16
Type: cell-based, Asterias rubens
Settings: ArSSR3 + Gα16 in CHO-K1 cells expressing GFP-aequorin (G5A); peptide 10^−21 to 10^−4 M; luminescence over 35 s; mean of at least three independent experiments, three repeats each; read-out: half-maximal response concentration (EC50)
Bridges are numbered along the chain shown (N, C = ends). Where no end group is shown, it is not given here.
measure_name: pEC50
Remember the convention: pEC50 equals -log10 of concentration in molar.

Query :: Retrieve pEC50 measured for RAKNARCMADFWKGRGLVDC (disulfide 7-20 (inferred)) [ArSS2] and print it.
Result :: 8.85

###

Test system: ArSSR2
Assay: GFP-aequorin luminescence receptor activation assay, CHO-K1 cells, ArSSR2 + Gα16
Assay type: cell-based, Asterias rubens
Conditions: ArSSR2 + Gα16 in CHO-K1 cells expressing GFP-aequorin (G5A); peptide 10^−21 to 10^−4 M; luminescence over 35 s; mean of at least three independent experiments, three repeats each; read-out: half-maximal response concentration (EC50)
Bridges are numbered along the chain shown (N, C = ends). Where no end group is shown, it is not given here.
measure_name: pEC50
Keep it numeric: pEC50 is minus log10 of the concentration in mol/L.

Query :: State its pEC50: RAKNARCMADFWKGRGLVDC (disulfide 7-20 (inferred)) [ArSS2]
Result :: 11.38

meta.source: paper PMC7536072
